In this section we review reported IC50 values for a set of compounds.
- system.under.test: recombinant human Dopamine Subtype D2s receptors (Homo sapiens)
- Construct: purchased Perkin Elmer
- assay: Dopamine D2 selectivity assay, inhibition of [3H]-spiperone binding to membranes
- test.conditions: [3H]-spiperone 0.16 nM; read-out: D2 bind pIC50 (converted)
Structures can show the parent of a compound that is named as a salt.

compound: CCN(CC)CCN(CCNCCc1ccc(O)c2[nH]c(=O)sc12)C(=O)CCOCCc1ccc(Cl)cc1 [Example 26, dihydrobromide]
system.under.test: recombinant human Dopamine Subtype D2s receptors (Homo sapiens)
IC50, nM: 1260

compound: CCN(CC)CCN(CCNCCc1ccc(O)c2[nH]c(=O)sc12)C(=O)CCOCCc1cccc(F)c1 [Example 22, dihydrobromide]
system.under.test: recombinant human Dopamine Subtype D2s receptors (Homo sapiens)
IC50, nM: 5010

compound: CCN(CC)CCN(CCNCCc1ccc(O)c2[nH]c(=O)sc12)C(=O)CCOCCc1ccc2ccccc2c1
system.under.test: recombinant human Dopamine Subtype D2s receptors (Homo sapiens)
IC50, nM: 794

compound: CCN(CC)CCN(CCNCCc1ccc(O)c2[nH]c(=O)sc12)C(=O)CCOCCc1cccc(O)c1 [Example 29, dihydrobromide]
system.under.test: recombinant human Dopamine Subtype D2s receptors (Homo sapiens)
IC50, nM: 251

compound: CCN(CC)CCN(CCNCCc1ccc(O)c2[nH]c(=O)sc12)C(=O)CCOCCc1cccc(C)c1
system.under.test: recombinant human Dopamine Subtype D2s receptors (Homo sapiens)
IC50, nM: 1000

compound: CCN(CC)CCN(CCNCCc1ccc(O)c2[nH]c(=O)sc12)C(=O)CCOCCc1ccc(Cl)c(Cl)c1 [Example 27, dihydrobromide]
system.under.test: recombinant human Dopamine Subtype D2s receptors (Homo sapiens)
IC50, nM: 3160

###

- system.under.test: recombinant human α1D receptor (Homo sapiens)
- Construct: made in house; host or cells: HEK293 cells (membranes)
- Sequence (P25100 whole entry): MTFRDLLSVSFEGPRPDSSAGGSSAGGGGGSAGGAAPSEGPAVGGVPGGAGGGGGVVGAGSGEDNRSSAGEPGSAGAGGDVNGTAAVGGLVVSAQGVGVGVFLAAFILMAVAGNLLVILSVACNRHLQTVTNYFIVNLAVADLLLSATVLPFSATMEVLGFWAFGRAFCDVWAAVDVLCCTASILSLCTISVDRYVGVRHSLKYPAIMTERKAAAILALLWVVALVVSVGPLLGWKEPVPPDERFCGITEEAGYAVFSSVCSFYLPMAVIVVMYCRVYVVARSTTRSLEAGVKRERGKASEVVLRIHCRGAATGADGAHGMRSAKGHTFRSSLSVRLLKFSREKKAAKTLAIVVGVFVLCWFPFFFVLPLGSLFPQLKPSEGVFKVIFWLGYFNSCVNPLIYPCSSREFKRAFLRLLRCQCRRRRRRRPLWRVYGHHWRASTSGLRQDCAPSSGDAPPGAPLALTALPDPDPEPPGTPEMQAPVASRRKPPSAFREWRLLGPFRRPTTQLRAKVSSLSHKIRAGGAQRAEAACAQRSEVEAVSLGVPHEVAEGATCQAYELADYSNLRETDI
- assay: Adrenergic α1D selectivity assay, inhibition of [3H]-prazosin binding to membranes
- test.conditions: HEK293 membranes, [3H]-prazosin 0.3 nM; read-out: α1 bind pIC50 (converted)
Structures can show the parent of a compound that is named as a salt.
Simple rule here: IC50 less than 1000 nM is rule met, otherwise rule not met.

molecule: CCN(CC)CCN(CCNCCc1ccc(O)c2[nH]c(=O)sc12)C(=O)CCOCCc1cccc(C)c1
cat: rule not met
//
molecule: CCN(CC)CCN(CCNCCc1ccc(O)c2[nH]c(=O)sc12)C(=O)CCOCCc1cccc(Cl)c1Cl [Example 20, ditrifluoroacetate]
cat: rule met
//
molecule: CCN(CC)CCN(CCNCCc1ccc(O)c2[nH]c(=O)sc12)C(=O)CCOCCc1ccc(Cl)cc1 [Example 26, dihydrobromide]
cat: rule not met
//
molecule: CCN(CC)CCN(CCNCCc1ccc(O)c2[nH]c(=O)sc12)C(=O)CCOCCc1ccccc1C(F)(F)F [Example 17, ditrifluoroacetate]
cat: rule met
//
molecule: CCN(CC)CCN(CCNCCc1ccc(O)c2[nH]c(=O)sc12)C(=O)CCOCCc1ccccc1Cl [Example 31, ditrifluoroacetate]
cat: rule met
//
molecule: CCN(CC)CCN(CCNCCc1ccc(O)c2[nH]c(=O)sc12)C(=O)CCOCCc1cccc(Cl)c1 [Example 18, ditrifluoroacetate]
cat: rule met

###

- system.under.test: Adrenergic β2 (Homo sapiens)
- Construct: endogenous in cells; host or cells: H292 cells
- assay: Adrenergic β2 mediated cAMP production in H292 cells (AlphaScreen cAMP detection)
- Format: cell-based
- test.conditions: cAMP, test compounds incubated 10 minutes at room temperature, 300 μM rolipram
pEC50: −log10 of the molar value.
Assign class by pEC50: not lower than 8 means Fulfilled; lower than 8 means Not fulfilled.

structure.notation: O=C(CCOCCc1ccccc1)N(CCCNCCc1ccc(O)c2[nH]c(=O)sc12)CCc1ccccc1
system.under.test: Adrenergic β2 (Homo sapiens)
cat: Fulfilled

structure.notation: O=C(CCOCCc1ccc(Br)cc1)N(CCNCCc1ccc(O)c2[nH]c(=O)sc12)CCc1ccccc1
system.under.test: Adrenergic β2 (Homo sapiens)
cat: Fulfilled

structure.notation: CC(C)(C)OC(=O)N1CCC(CN(CCNCCc2ccc(O)c3[nH]c(=O)sc23)C(=O)CCOCCc2ccccc2)CC1
system.under.test: Adrenergic β2 (Homo sapiens)
cat: Not fulfilled

###

- system.under.test: recombinant human α1D receptor (Homo sapiens)
- Construct: made in house; host or cells: HEK293 cells (membranes)
- assay: Adrenergic α1D selectivity assay, inhibition of [3H]-prazosin binding to membranes
- test.conditions: HEK293 membranes, [3H]-prazosin 0.3 nM; read-out: α1 bind pIC50 (converted)
Where a name gives a salt, the structure may show the parent alone.
In this section we review reported IC50 values for a set of molecules.

molecule: CCN(CC)CCN(CCNCCc1ccc(O)c2[nH]c(=O)sc12)C(=O)CCOCCc1cccc(F)c1 [Example 22, dihydrobromide]
unit.string: nM
IC50: 1260
//
molecule: CCN(CC)CCN(CCNCCc1ccc(O)c2[nH]c(=O)sc12)C(=O)CCOCCc1cccc(O)c1 [Example 29, dihydrobromide]
unit.string: nM
IC50: 1260
//
molecule: CCN(CC)CCN(CCNCCc1ccc(O)c2[nH]c(=O)sc12)C(=O)CCOCCc1ccc2ccccc2c1
unit.string: nM
IC50: 631

###

In this section we review reported Intrinsic Activity values for a set of compounds.
- system.under.test: Adrenergic β2 (Homo sapiens)
- Construct: endogenous in cells; host or cells: H292 cells
- assay: Adrenergic β2 mediated cAMP production in H292 cells (AlphaScreen cAMP detection)
- Type: cell-based
- test.conditions: fraction relative to the maximum activity determined for formoterol, 10 minutes incubation

structure.notation: O=C(CCOCCc1ccc(Br)cc1)N(CCNCCc1ccc(O)c2[nH]c(=O)sc12)CCc1ccccc1
Intrinsic Activity: 0.6
//
structure.notation: O=C(CCOCCc1ccccc1)N(CCCNCCc1ccc(O)c2[nH]c(=O)sc12)CCc1ccccc1
Intrinsic Activity: 0.7
//
structure.notation: CCN(CC)CCN(CCNCCc1ccc(O)c2[nH]c(=O)sc12)C(=O)CCOCCc1ccccc1
Intrinsic Activity: 0.8
//
structure.notation: CC(C)(C)OC(=O)N1CCC(CN(CCNCCc2ccc(O)c3[nH]c(=O)sc23)C(=O)CCOCCc2ccccc2)CC1
Intrinsic Activity: 0.7
//
structure.notation: O=C(CCOCCc1ccccc1)N(CCNCCc1ccc(O)c2[nH]c(=O)sc12)Cc1cccnc1
Intrinsic Activity: 0.8

###

In this section we review reported IC50 values for a set of compounds.
- system.under.test: recombinant human Dopamine Subtype D2s receptors (Homo sapiens, UniProt P14416)
- Construct: purchased Perkin Elmer
- Sequence (P14416 1-414 isoform P14416-2): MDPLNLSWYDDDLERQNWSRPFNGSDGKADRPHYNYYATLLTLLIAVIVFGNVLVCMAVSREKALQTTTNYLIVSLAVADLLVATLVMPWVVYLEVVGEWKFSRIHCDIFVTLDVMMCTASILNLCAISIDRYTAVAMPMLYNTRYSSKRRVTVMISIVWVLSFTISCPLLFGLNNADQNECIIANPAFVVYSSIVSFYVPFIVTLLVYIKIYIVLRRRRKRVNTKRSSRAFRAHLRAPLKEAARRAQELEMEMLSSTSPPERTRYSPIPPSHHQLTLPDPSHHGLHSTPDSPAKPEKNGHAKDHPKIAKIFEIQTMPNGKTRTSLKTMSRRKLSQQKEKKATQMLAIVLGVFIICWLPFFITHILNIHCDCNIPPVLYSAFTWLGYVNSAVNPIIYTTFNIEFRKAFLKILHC
- assay: Dopamine D2 selectivity assay, inhibition of [3H]-spiperone binding to membranes
- test.conditions: [3H]-spiperone 0.16 nM; read-out: D2 bind pIC50 (converted)

compound: CCN(CC)CCN(CCNCCc1ccc(O)c2[nH]c(=O)sc12)C(=O)CCOCCc1ccccc1Cl [Example 31, ditrifluoroacetate]
IC50: 5010 nM
//
compound: CCN(CC)CCN(CCNCCc1ccc(O)c2[nH]c(=O)sc12)C(=O)CCOCCc1cccc(Cl)c1Cl [Example 20, ditrifluoroacetate]
IC50: 1580 nM
//
compound: CCN(CC)CCN(CCNCCc1ccc(O)c2[nH]c(=O)sc12)C(=O)CCOCCc1cccc(Cl)c1 [Example 18, ditrifluoroacetate]
IC50: 2510 nM

###

- system.under.test: Adrenergic β2 (Homo sapiens, UniProt P07550)
- Construct: endogenous in cells; host or cells: H292 cells
- Sequence (P07550 whole entry): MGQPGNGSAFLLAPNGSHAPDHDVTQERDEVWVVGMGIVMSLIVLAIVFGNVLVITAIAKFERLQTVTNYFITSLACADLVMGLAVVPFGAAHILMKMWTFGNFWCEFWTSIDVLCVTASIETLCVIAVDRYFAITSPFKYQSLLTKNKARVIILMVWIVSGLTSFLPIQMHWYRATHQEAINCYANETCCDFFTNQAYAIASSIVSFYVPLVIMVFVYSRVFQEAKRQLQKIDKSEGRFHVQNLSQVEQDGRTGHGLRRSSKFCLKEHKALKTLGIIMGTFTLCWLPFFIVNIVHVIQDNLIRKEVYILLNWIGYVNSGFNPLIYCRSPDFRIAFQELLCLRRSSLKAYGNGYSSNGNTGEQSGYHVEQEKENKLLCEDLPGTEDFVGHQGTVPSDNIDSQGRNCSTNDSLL
- assay: Alternative adrenergic β2 mediated cAMP production in H292 cells (AlphaScreen cAMP detection)
- Assay type: cell-based
- test.conditions: cAMP, test compounds incubated 60 minutes at room temperature, 300 μM rolipram, read-out: β2 pEC50 (converted)
Where a name gives a salt, the structure may show the parent alone.
Simple rule here: EC50 less than 20 nM is true (1), otherwise false (0).

compound: CCN(CC)CCN(CCNCCc1ccc(O)c2[nH]c(=O)sc12)C(=O)CCOCCc1cccc(Cl)c1Cl [Example 20, ditrifluoroacetate]
system.under.test: Adrenergic β2 (Homo sapiens, UniProt P07550)
cat: true (1)
--
compound: CCN(CC)CCN(CCNCCc1ccc(O)c2[nH]c(=O)sc12)C(=O)CCOCCc1cccc(C)c1 [Example 28]
system.under.test: Adrenergic β2 (Homo sapiens, UniProt P07550)
cat: true (1)
--
compound: CCN(CC)CCN(CCNCCc1ccc(O)c2[nH]c(=O)sc12)C(=O)CCOCCc1cccc(Cl)c1 [Example 18, ditrifluoroacetate]
system.under.test: Adrenergic β2 (Homo sapiens, UniProt P07550)
cat: true (1)
--
compound: O=C(CCOCCc1ccc(Br)cc1)N(CCNCCc1ccc(O)c2[nH]c(=O)sc12)CCc1ccccc1 [Example 10]
system.under.test: Adrenergic β2 (Homo sapiens, UniProt P07550)
cat: true (1)
--
compound: CCN(CC)CCN(CCNCCc1ccc(O)c2[nH]c(=O)sc12)C(=O)CCOCCc1ccc2ccccc2c1 [Example 32]
system.under.test: Adrenergic β2 (Homo sapiens, UniProt P07550)
cat: true (1)
--
compound: CCN(CC)CCN(CCNCCc1ccc(O)c2[nH]c(=O)sc12)C(=O)CCOCCc1cccc(O)c1 [Example 29, dihydrobromide]
system.under.test: Adrenergic β2 (Homo sapiens, UniProt P07550)
cat: true (1)
--
compound: CCN(CC)CCN(CCNCCc1ccc(O)c2[nH]c(=O)sc12)C(=O)CCOCCc1ccc(Cl)cc1 [Example 26, dihydrobromide]
system.under.test: Adrenergic β2 (Homo sapiens, UniProt P07550)
cat: true (1)
--
compound: CCN(CC)CCN(CCNCCc1ccc(O)c2[nH]c(=O)sc12)C(=O)CCOCCc1cc(OC)ccc1Br [Example 21, dihydrobromide]
system.under.test: Adrenergic β2 (Homo sapiens, UniProt P07550)
cat: false (0)
--
compound: O=c1[nH]c2c(O)ccc(CCNCCN(CCCOCCc3ccccc3)CCc3ccccc3)c2s1 [Example 13]
system.under.test: Adrenergic β2 (Homo sapiens, UniProt P07550)
cat: false (0)
--
compound: CCN(CC)CCN(CCNCCc1ccc(O)c2[nH]c(=O)sc12)C(=O)CCOCCc1cccc(F)c1 [Example 22, dihydrobromide]
system.under.test: Adrenergic β2 (Homo sapiens, UniProt P07550)
cat: true (1)
--
compound: CCN(CC)CCN(CCNCCc1ccc(O)c2[nH]c(=O)sc12)C(=O)CCOCCc1ccc(Cl)c(Cl)c1 [Example 27, dihydrobromide]
system.under.test: Adrenergic β2 (Homo sapiens, UniProt P07550)
cat: false (0)
--
compound: CCN(CC)CCN(CCNCCc1ccc(O)c2[nH]c(=O)sc12)C(=O)CCOCCc1ccccc1C(F)(F)F [Example 17, ditrifluoroacetate]
system.under.test: Adrenergic β2 (Homo sapiens, UniProt P07550)
cat: false (0)
--
compound: CCN(CC)CCN(CCNCCc1ccc(O)c2[nH]c(=O)sc12)C(=O)CCOCCc1ccccc1 [Example 12]
system.under.test: Adrenergic β2 (Homo sapiens, UniProt P07550)
cat: true (1)
--
compound: CCN(CC)CCN(CCNCCc1ccc(O)c2[nH]c(=O)sc12)C(=O)CCOCCc1c(Cl)cccc1Cl [Example 24, dihydrobromide]
system.under.test: Adrenergic β2 (Homo sapiens, UniProt P07550)
cat: false (0)
--
compound: CN(C)CCN(CCNCCc1ccc(O)c2[nH]c(=O)sc12)C(=O)CCOCCc1ccccc1 [Example 14]
system.under.test: Adrenergic β2 (Homo sapiens, UniProt P07550)
cat: true (1)
--
compound: CCN(CC)CCN(CCNCCc1ccc(O)c2[nH]c(=O)sc12)C(=O)CCOCCc1ccc(O)cc1 [Example 19, ditrifluoroacetate]
system.under.test: Adrenergic β2 (Homo sapiens, UniProt P07550)
cat: true (1)
--
compound: CCN(CC)CCN(CCNCCc1ccc(O)c2[nH]c(=O)sc12)C(=O)CCOCCc1cccc(C(F)(F)F)c1 [Example 25, dihydrobromide]
system.under.test: Adrenergic β2 (Homo sapiens, UniProt P07550)
cat: false (0)
